biological target: Full-length glucokinase (beta cell isoform) (Homo sapiens, UniProt P35557); construct: Full-length glucokinase (beta cell isoform) was His-tagged at N-terminus; His tag (N); made in house; host or cells: E. coli BL21(DE3), pBCGK vector; assay: Glucokinase activation assay (PK/LDH-coupled, NADH depletion at 340 nm); assay type: biochemical; details: 5 mM glucose, 2.5 mM ATP, pH 7.1, room temperature; single value or range where N>1; read-out: EC50
reported endpoint: EC50

# compound, recorded value
data = [
    ("CS(=O)(=O)c1cnn([C@@H](CC2CCCC2)C(=O)Nc2ccncn2)c1", "32 µM"),
    ("Cn1ccc(NC(=O)[C@H](CC2CCCC2)n2nnc(S(C)(=O)=O)n2)n1", "40 µM"),
    ("Cc1ccc(NC(=O)[C@H](CC2CCCC2)n2cc(S(=O)(=O)C(C)C)cn2)nc1", "0.3 to 0.6 µM"),
    ("CC(C)S(=O)(=O)c1cn([C@@H](CC2CCCC2)C(=O)Nc2ccn(C)n2)cn1", "17 µM"),
    ("CC(C)S(=O)(=O)c1cnn([C@@H](CC2CCCC2)C(=O)Nc2ccncn2)c1", "0.9 to 2.2 µM"),
    ("CN(C)C(=O)c1cnn([C@@H](CC2CCCC2)C(=O)Nc2ccn(C)n2)c1", "> 30 µM"),
    ("CS(=O)(=O)c1cnn([C@@H](CC2CCCC2)C(=O)Nc2ccn(Cc3ccccc3)n2)c1", "> 100 µM"),
    ("Cc1ccc(NC(=O)[C@H](CC2CCCO2)n2cnc(C(F)(F)F)c2)nc1 (mixture of isomers)", "5 µM"),
    ("CC(C)S(=O)(=O)c1cnn([C@@H](CC2CCCC2)C(=O)Nc2ccon2)c1", "60 µM"),
    ("Cn1ccc(NC(=O)[C@H](CC2CCCC2)n2cnc(S(C)(=O)=O)c2)n1", "23 µM"),
]

List reported EC50 for each of these compounds:
1. O=C(Nc1cnc([C@H](O)CO)cn1)[C@H](CC1CCCC1)n1cnc(C(F)(F)F)c1
2. CCS(=O)(=O)c1cnn([C@@H](CC2CCCC2)C(=O)Nc2cnc(C)cn2)c1
3. Cc1ccc(NC(=O)[C@H](CC2CCCC2)n2cc(C(F)(F)F)nc2C)nc1
4. Cc1ccc(NC(=O)[C@H](Cn2cccn2)n2cnc(C(F)(F)F)c2)nc1
5. CCS(=O)(=O)c1cn([C@@H](CC2CCCC2)C(=O)Nc2cnc(C)cn2)cn1
6. COc1ccc2nc(NC(=O)[C@H](CC3CCOCC3)n3cnc(C(F)(F)F)c3)sc2n1
7. CC(C)S(=O)(=O)c1cnn([C@@H](CC2CCCC2)C(=O)Nc2ccn(C)n2)c1

OUT:
1: 2.6 to 4.2 µM; 2: 25 µM; 3: 0.4 µM; 4: > 100 µM; 5: 16 µM; 6: 4.2 to 4.4 µM; 7: 3.5 to 6 µM

Can you give me EC50 for all of these, one by one?
1. Cc1ccc(NC(=O)[C@H](CC2CCCC2)n2cc(S(C)(=O)=O)cn2)nc1
2. Cc1ccc(NC(=O)[C@H](CC2CCCC2)n2cc(C(F)(F)F)c(C)n2)nc1
3. CC(C)S(=O)(=O)c1cnn([C@@H](CC2CCCC2)C(=O)Nc2cnccn2)c1
4. Cc1cnc(NC(=O)[C@H](CC2CCCC2)n2ccc(C(F)(F)F)n2)cn1
5. CCS(=O)(=O)c1cnn([C@@H](CC2CCCC2)C(=O)Nc2ccc(C)cn2)c1
6. CS(=O)(=O)c1cn([C@@H](CC2CCCC2)C(=O)Nc2ccc(C(=O)O)cn2)cn1
7. Cn1ccc(NC(=O)[C@H](CC2CCCC2)n2cnc(S(C)(=O)=O)n2)n1
8. Cc1ccc(NC(=O)[C@H](CC2CCCC2)n2cnc(S(C)(=O)=O)n2)nc1

OUT:
3.8 µM
2.8 µM
9 to 16.5 µM
24 µM
2.9 µM
2.3 µM
33 µM
3.9 µM

* * *

target: Full-length glucokinase (beta cell isoform) (Homo sapiens, UniProt P35557); construct: Full-length glucokinase (beta cell isoform) was His-tagged at N-terminus; His tag (N); made in house; host or cells: E. coli BL21(DE3), pBCGK vector; assay: Glucokinase activation assay (PK/LDH-coupled, NADH depletion at 340 nm); format: biochemical; settings: % max activation = (Va/Vo−1)×100 from fit; 5 mM glucose, pH 7.1; single value or range where N>1; read-out: Maximum Activation (%)
reported endpoint: Emax (%)
Numbers only, in %.

Illustrative cases are given below, each with its answer.
# smiles representation, result units, Emax
rows = [
    ("CCOP(=O)(Cc1ccc(NC(=O)[C@H](CC2CCCC2)n2cnc(C(F)(F)F)c2)nc1)OCC", "%", 129),
    ("CCS(=O)(=O)c1cnn([C@@H](CC2CCCC2)C(=O)Nc2cnc(C)cn2)c1", "%", 144),
    ("Cc1ccc(NC(=O)[C@H](CC2CCCC2)n2nnc(S(C)(=O)=O)n2)nc1", "%", 86),
    ("Cn1ccc(NC(=O)[C@H](CC2CCCC2)n2cnc(S(C)(=O)=O)c2)n1", "%", 125),
]

Dear colleague, could you please provide Emax for the compounds listed below?
1. CC(C)(C(=O)O)c1ccc(NC(=O)[C@H](CC2CCCC2)n2cnc(C(F)(F)F)c2)nc1
2. Cc1cnc(NC(=O)[C@H](CC2CCCC2)n2cnc(C(F)(F)F)c2)cn1

OUT:
84
161

List reported Emax for each of these compounds:
1. Cn1ccc(NC(=O)[C@H](CC2CCCC2)n2cc(S(C)(=O)=O)cn2)n1
2. CC(C)(O)Cn1ccc(NC(=O)[C@H](CC2CCCC2)n2cnc(C(F)(F)F)c2)n1
3. CCOP(=O)(OCC)c1ccc(NC(=O)[C@H](CC2CCCC2)n2cnc(C(F)(F)F)c2)nc1

OUT:
1: 174; 2: 167; 3: 81

* * *

Exercise: for every item that follows, state its recorded Emax.
biological target: Full-length glucokinase (beta cell isoform) (Homo sapiens, UniProt P35557); construct: Full-length glucokinase (beta cell isoform) was His-tagged at N-terminus; His tag (N); made in house; host or cells: E. coli BL21(DE3), pBCGK vector; test: Glucokinase activation assay (PK/LDH-coupled, NADH depletion at 340 nm); assay type: biochemical; conditions: % max activation = (Va/Vo−1)×100 from fit; 5 mM glucose, pH 7.1; single value or range where N>1; read-out: Maximum Activation (%)
Give bare numbers, in %.

Please review the entries below; each comes with its answer.
# compound, Emax [%]
rows = [
    ("CC(C)S(=O)(=O)c1cnn([C@@H](CC2CCCC2)C(=O)Nc2ccon2)c1", 89),
    ("O=C(Nc1nc2cccnc2s1)[C@H](CC1CCOCC1)n1cnc(C(F)(F)F)c1", 139),
    ("Cc1cnc(NC(=O)[C@H](CC2CCCC2)n2ccc(C(F)(F)F)n2)cn1", 124),
    ("CC(C)S(=O)(=O)c1cnn([C@@H](CC2CCCC2)C(=O)Nc2ccccn2)c1", 48),
    ("Cc1ccc(NC(=O)[C@H](CC2CCCC2)n2cc(C(F)(F)F)nc2C)nc1", 120),
]

Batch lookup, Emax per entry.
1. Cc1ccc(NC(=O)[C@H](CC2CCCC2)n2cc(C(F)(F)F)c(C)n2)nc1
2. NC(=O)c1ccc(NC(=O)[C@H](CC2CCCC2)n2cnc(C(F)(F)F)c2)nc1
3. Cc1cnc(NC(=O)[C@H](CC2CCOCC2)n2cnc(C(F)(F)F)c2)cn1

OUT:
1. 123
2. 110
3. 115

I would be grateful if you could provide Emax for each of the following entries.
1. Cc1ccc(NC(=O)[C@H](CC2CCCO2)n2cnc(C(F)(F)F)c2)nc1 (mixture of isomers)
2. CCS(=O)(=O)c1cn([C@@H](CC2CCCC2)C(=O)Nc2ccn(C)n2)cn1
3. Cc1cnc(NC(=O)[C@H](CC2CCCC2)n2cnc(S(C)(=O)=O)n2)cn1
4. O=C(O)Cn1ccc(NC(=O)[C@H](CC2CCCC2)n2cnc(C(F)(F)F)n2)n1
5. Cc1cnc(NC(=O)[C@H](CC2CCCC2)n2cnc(S(=O)(=O)C(C)C)c2)cn1
6. Cc1ccc(NC(=O)[C@H](CC2CCCC2)n2cnc(S(C)(=O)=O)c2)nc1
7. Cc1cn([C@@H](CC2CCCC2)C(=O)Nc2ccc(C(=O)O)cn2)nc1C(F)(F)F
8. CCn1ncc(NC(=O)[C@H](CC2CCCC2)n2cnc(C(F)(F)F)c2)n1

OUT:
115
125
120
183
100
100
128
168

* * *

Target: Full-length glucokinase (beta cell isoform) (Homo sapiens, UniProt P35557)
Construct: Full-length glucokinase (beta cell isoform) was His-tagged at N-terminus; His tag (N); made in house; host or cells: E. coli BL21(DE3), pBCGK vector
Sequence (P35557 1-465): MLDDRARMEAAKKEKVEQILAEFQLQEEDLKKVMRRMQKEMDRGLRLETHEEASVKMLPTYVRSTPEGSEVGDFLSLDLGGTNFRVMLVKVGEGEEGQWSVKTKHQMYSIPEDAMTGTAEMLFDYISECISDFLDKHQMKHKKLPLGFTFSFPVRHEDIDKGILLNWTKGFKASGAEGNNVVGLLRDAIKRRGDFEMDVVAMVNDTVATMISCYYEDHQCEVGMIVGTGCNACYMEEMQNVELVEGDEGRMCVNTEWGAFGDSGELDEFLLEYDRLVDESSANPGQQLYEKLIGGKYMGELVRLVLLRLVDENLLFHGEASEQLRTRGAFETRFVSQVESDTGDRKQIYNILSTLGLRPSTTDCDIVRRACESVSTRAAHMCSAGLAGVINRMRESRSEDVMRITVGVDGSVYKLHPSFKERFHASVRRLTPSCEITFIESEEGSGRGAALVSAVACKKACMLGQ
Experiment: Glucokinase activation assay (PK/LDH-coupled, NADH depletion at 340 nm)
Type: biochemical
Conditions: 5 mM glucose, 2.5 mM ATP, pH 7.1, room temperature; single value or range where N>1; read-out: EC50
reported endpoint: pEC50
One number for each entry, as −log10 of the molar value.

# compound, reported endpoint, recorded value
data = [
    ("Cc1cnc(NC(=O)[C@H](CC2CCCC2)n2cnc(S(C)(=O)=O)n2)cn1 [Example 27]", "pEC50", 4.66),
    ("O=C(O)Cn1ccc(NC(=O)[C@H](CC2CCCC2)n2cnc(C(F)(F)F)n2)n1 [Example 89]", "pEC50", 4.35),
    ("O=C(Nc1cnccn1)[C@H](CC1CCCC1)n1cnc(C(F)(F)F)n1 [Example 84]", "pEC50", 5.00),
]

Provide each entry's pEC50 from the list below.
1. CC(C)(C(=O)O)c1ccc(NC(=O)[C@H](CC2CCCC2)n2cnc(C(F)(F)F)c2)nc1 [Example 65]
2. Cc1ccc(NC(=O)[C@H](CC2CCCC2)n2nnc(S(C)(=O)=O)n2)nc1 [Example 80]
3. CC(C)S(=O)(=O)c1cnn([C@@H](CC2CCCC2)C(=O)Nc2ccccn2)c1 [Example 16]
4. NC(=O)c1ccc(NC(=O)[C@H](CC2CCCC2)n2cnc(C(F)(F)F)c2)nc1 [Example 52]
5. Cc1cnc(NC(=O)[C@H](CC2CCOCC2)n2cnc(C(F)(F)F)c2)cn1 [Example 74]
6. CC(C)(O)C(=O)Nc1ccc(NC(=O)[C@H](CC2CCCC2)n2cnc(C(F)(F)F)c2)nc1 [Example 67]
7. CCS(=O)(=O)c1cn([C@@H](CC2CCCC2)C(=O)Nc2ccn(C)n2)cn1 [Example 31]

OUT:
1. 4.77
2. 4.49
3. 5.72
4. 6.40
5. 5.06
6. 5.55
7. 4.96

Can you give me pEC50 for all of these, one by one?
1. O=C(O)c1ccc(NC(=O)[C@H](CC2CCCC2)n2cnc(C(F)(F)F)n2)nc1 [Example 88]
2. CCn1ccc(NC(=O)[C@H](CC2CCCC2)n2cc(S(=O)(=O)C(C)C)cn2)n1 [Example 18]

OUT:
1: 6.15; 2: 4.80
